- Test system: RXF 393
- PROTOCOL DETAILS: NCI tumour cell line growth inhibition, 48 h
Calls of active or inactive are those of the source. Cut-off read from the data, not from the text of the source: active = GI50 up to about 1.1 µM and inactive = higher.
Lab note: assign the record to one of class 1 = active, class 0 = inactive

Here's what some known entries look like.
{"columns": ["MOLECULE", "LABEL VALUE"],
 "data": [
  ["COc1cc(OC(=O)c2ccccc2)cc2c1C(=O)C=CC2=O", "class 0"],
  ["C=C[C@@]1(C)CC2(C=C(CO)C(O)O2)Oc2c1c(=O)oc1cccc(C)c21 (stereo not given in full)", "class 0"],
  ["Cn1c2ccccc2c(=O)c2c(O)cc3c(c21)CC(C1(C)CO1)O3 (stereo not given)", "class 0"],
  ["C=C(CC[C@@H](C)[C@H]1CC[C@H]2[C@@H]3C[C@@H](O)[C@H]4C[C@@H](O)CC[C@]4(CO)[C@H]3CC[C@]12C)C(C)C", "class 0"]
]}

Incoming: Tell me the recorded outcome of this test for CCN1CN(c2ccccc2)C2(CCN(CC3COc4ccccc4O3)CC2)C1=O (stereo not given) .
Outgoing: class 0

Incoming: Give the logged outcome of this assay for the following molecule: COC(=O)C(C(=O)C(=O)Nc1ccc(C(F)(F)F)cc1[N+](=O)[O-])c1csc(-n2nc(-c3ccccc3)cc2-c2ccccc2)n1 (stereo not given)
Outgoing: class 0

Incoming: How did this test come out for NC(=O)CC(Nc1ncc2c(n1)-c1ccccc1OC2)C(=O)O (stereo not given) ?
Outgoing: class 0

Incoming: Just curious, what result did COc1cc(-c2ccc(Nc3ccccc3C(=O)O)c(OC)c2)ccc1Nc1ccccc1C(=O)O get here?
Outgoing: class 0

Incoming: Called result for COc1cc2c(c(OC)c1OC)-c1ccc(SC)cc1[C@H](OC(=O)c1ccccc1)CC2
Outgoing: class 1

###

- Test system: A498
- PROTOCOL DETAILS: NCI tumour cell line growth inhibition, 48 h
Active and inactive are the calls of the source. Cut-off read from the data, not from the text of the source: active = GI50 up to about 1.1 µM and inactive = higher.
Documented GI50 across a set of compounds

{"columns": ["COMPOUND", "GI50"],
 "data": [
  ["CCc1n[nH]c(=O)n1CC", "> 100 µM (inactive)"],
  ["COCN1CCN=c2c1c1c3c(c4ccccc4n23)CCC1", "> 100 µM (inactive)"],
  ["S=c1[nH]n2c(CCCCCCCCc3nnc4sc(=S)[nH]n34)nnc2s1", "> 100 µM (inactive)"]
]}

Now take the following compound into account.
Incoming: Request: GI50, test system A498, entry Cc1ncc([N+](=O)[O-])n1CCNC(=O)Cn1c([N+](=O)[O-])cnc1C
Outgoing: > 100 µM (inactive)

###

- Test system: MOLT-4
- PROTOCOL DETAILS: NCI tumour cell line growth inhibition, 48 h
Active and inactive are the calls of the source. No stated cut-off is given here; in the data, active = GI50 up to about 1.1 µM and inactive = higher.
ENDPOINT: GI50

Use these answered entries as a reference point.
{"columns": ["MOLECULE", "GI50"],
 "data": [
  ["CCOC(=O)C(C)c1nc2cc(F)c(F)cc2[nH]c1=O (stereo unspecified)", "> 100 µM (inactive)"],
  ["COc1nc2c(c(=O)[nH]1)N=C(c1ccc([N+](=O)[O-])cc1)CC(c1ccccc1)N2 (stereo unspecified)", "54.3 µM (inactive)"],
  ["CCN(CC)CCOc1ccccc1/C=C/c1noc2ccccc12", "12.1 µM (inactive)"],
  ["O=C(COC(=O)c1cccc2c(=O)c3ccccc3[nH]c12)Nc1ccc(Cl)cc1", "26.3 µM (inactive)"],
  ["CCOC(=O)C(Cc1c2ccccc2cc2ccccc12)(NC(C)=O)C(=O)OCC", "25.8 µM (inactive)"],
  ["O=C1CSC(/C(=C/c2ccccc2)c2nc3ccccc3[nH]2)=N1", "> 100 µM (inactive)"],
  ["C=Cc1c(-c2ccccc2)cnc2[nH]c3ccccc3c12", "> 50 µM (inactive)"],
  ["Cc1nc(C)c(N2CCN([N+](=O)[O-])CC2)c(O)n1", "> 100 µM (inactive)"],
  ["c1ccc(C2=NNC3c4ccccc4-c4ccccc4N3C2)cc1 (stereo unspecified)", "20 µM (inactive)"],
  ["Cc1ccccc1C(C#N)/C(=N/NC(=O)c1cc2ccccc2cc1O)C(=O)Nc1cccc(Cl)c1 (stereo unspecified)", "10.9 µM (inactive)"]
]}

Attention now shifts to the item below.
Incoming: Sample COc1ccc(/C=N/NC(=S)Nc2cc(C)ccc2OC)cc1 — what was its GI50?
Outgoing: 9.98 µM (inactive)

###

- Test system: MCF7
- PROTOCOL DETAILS: NCI tumour cell line growth inhibition, 48 h
Calls of active or inactive are those of the source. Cut-off read from the data, not from the text of the source: active = GI50 up to about 1.1 µM and inactive = higher.
Listed here are compounds together with their documented GI50.

{"columns": ["COMPOUND", "ENDPOINT", "EXPERIMENTAL VALUE"],
 "data": [
  ["CC(C)CC1N=C(OCc2ccccc2)OC1=O (stereo not drawn)", "GI50", "> 100 µM (inactive)"],
  ["Cc1ccc2c(=O)c(C(=O)N(CCO)CCO)c[nH]c2n1", "GI50", "> 100 µM (inactive)"],
  ["CC(C)=C[C@@H]1C[C@H](C)c2c(O)cc(C)c3c2C1=C(C)C(=O)C3=O", "GI50", "22.8 µM (inactive)"],
  ["CC1(C)CSCC(C)(C)C(=N/N)/C1=N\\N", "GI50", "> 100 µM (inactive)"],
  ["COc1ccc(C)cc1Nc1nnc(-c2ccccc2N)s1", "GI50", "37.8 µM (inactive)"]
]}

Incoming: Need GI50, item O=C1/C(=C/C=C/c2ccccc2)N=C(c2ccccc2)N1c1ccc(S(=O)(=O)Nc2nccs2)cc1
Outgoing: 18.7 µM (inactive)

Incoming: Record request: GI50 value, item CC[C@@]1(O)C(=O)OCc2c1c(Cl)c1n(c2=O)Cc2cc3ccccc3nc2-1
Outgoing: 0.708 µM (active)

Incoming: Given the entry NC(=O)C(=O)n1ncc(Cl)c(Cl)c1=O , report its measured GI50.
Outgoing: 57.3 µM (inactive)

Incoming: Requested field: GI50. Item: Cc1ccc(-n2nnc3c(NNc4ccccc4)n[nH]c(=O)c32)cc1
Outgoing: 35.3 µM (inactive)

Incoming: I would be grateful if you could share the reported GI50 for CN1c2ccccc2C(=O)Nc2cnc(Cl)nc21 .
Outgoing: > 100 µM (inactive)

Incoming: Would you mind telling me what GI50 value was observed for O=C(O)Cc1ccc(N2N=C(c3ccccc3)CC2=O)cc1 ?
Outgoing: > 100 µM (inactive)

Incoming: Suppose we examine the compound CCOC(=O)C(=O)C(/C(=N/N(C)C)C(=O)Nc1ccc(C)cc1C)c1nc2ccccc2nc1O (stereo not drawn) ; what GI50 value has been reported?
Outgoing: > 100 µM (inactive)

Incoming: Entry under review: Cc1ncc([N+](=O)[O-])n1CCNC(=O)Cn1c([N+](=O)[O-])cnc1C . Reported GI50?
Outgoing: > 100 µM (inactive)

Incoming: Requested field: GI50. Item: O=C(O)c1cccc(Nc2c(C(=O)O)cccc2[N+](=O)[O-])c1
Outgoing: > 100 µM (inactive)

###

- System: RPMI-8226
- PROTOCOL DETAILS: NCI tumour cell line growth inhibition, 48 h
Activity calls are given as the source filed them. Rule as the data show it: active = GI50 up to about 1.1 µM and inactive = higher.
Listed next: entries and their corresponding GI50.

Consider the worked cases shown below.
{"columns": ["QUERY SMILES", "GI50"],
 "data": [
  ["C/C(=N\\NC(=O)c1ccncc1)c1cccc(F)c1", "> 10 µM (inactive)"],
  ["O=C1C=CC(=O)c2cc(Sc3ccccc3)c(=O)c(Sc3ccccc3)cc21", "37.3 µM (inactive)"],
  ["CC(C)(C)SC1=CCC[C@@H](P(=O)(c2ccccc2)c2ccccc2)[C@@H]2CCC[C@@H]12", "19.1 µM (inactive)"],
  ["COC(=O)CCC(=O)CC(=O)C(=O)Nc1c(Cl)cc([N+](=O)[O-])cc1Cl", "33.4 µM (inactive)"]
]}

Next item in the queue.
Incoming: Suppose we examine the compound CCOC(=O)/C(=N\Nc1ccc(-n2c(C)nc3ccc(Br)cc3c2=O)cc1)C(C)=O ; what GI50 value has been reported?
Outgoing: 16.4 µM (inactive)

###

- System: SK-OV-3
- PROTOCOL DETAILS: NCI tumour cell line growth inhibition, 48 h
Active and inactive are the calls of the source. No stated cut-off is given here; in the data, active = GI50 up to about 1.1 µM and inactive = higher.
ENDPOINT: GI50

{"columns": ["COMPOUND", "TARGET UNDER TEST", "ENDPOINT", "EXPERIMENTAL VALUE"],
 "data": [
  ["COC1(C)C(=O)N2C1N(C(=O)OC(C)(C)C)CC2(C)C (stereo not given)", "SK-OV-3", "GI50", "> 100 µM (inactive)"],
  ["COc1ccc(C)cc1Nc1nnc(-c2ccccc2N)s1", "SK-OV-3", "GI50", "> 100 µM (inactive)"],
  ["Cc1ccc(C2=CC(=O)c3ccccc3C2=O)n1-c1ccccc1", "SK-OV-3", "GI50", "> 100 µM (inactive)"],
  ["CC(C)(C)[Si](C)(C)O/N=C\\c1ccc(O[Si](C)(C)C(C)(C)C)cc1", "SK-OV-3", "GI50", "> 100 µM (inactive)"],
  ["CC(C)/C(Cl)=N\\OC(=O)Nc1cccc(F)c1", "SK-OV-3", "GI50", "19.7 µM (inactive)"]
]}

Next compound, please.
Incoming: // returns reported GI50 for input O=C1/C(=C/C=C/c2ccccc2)N=C(c2ccccc2)N1c1ccc(S(=O)(=O)Nc2nccs2)cc1
Outgoing: 28.1 µM (inactive)
